# assayed-system: M. tuberculosis RNA polymerase core enzyme, M. tuberculosis σ^A (Mycobacterium tuberculosis, UniProt P9WGY7+P9WGY9)
# Sequence (P9WGI1 whole entry): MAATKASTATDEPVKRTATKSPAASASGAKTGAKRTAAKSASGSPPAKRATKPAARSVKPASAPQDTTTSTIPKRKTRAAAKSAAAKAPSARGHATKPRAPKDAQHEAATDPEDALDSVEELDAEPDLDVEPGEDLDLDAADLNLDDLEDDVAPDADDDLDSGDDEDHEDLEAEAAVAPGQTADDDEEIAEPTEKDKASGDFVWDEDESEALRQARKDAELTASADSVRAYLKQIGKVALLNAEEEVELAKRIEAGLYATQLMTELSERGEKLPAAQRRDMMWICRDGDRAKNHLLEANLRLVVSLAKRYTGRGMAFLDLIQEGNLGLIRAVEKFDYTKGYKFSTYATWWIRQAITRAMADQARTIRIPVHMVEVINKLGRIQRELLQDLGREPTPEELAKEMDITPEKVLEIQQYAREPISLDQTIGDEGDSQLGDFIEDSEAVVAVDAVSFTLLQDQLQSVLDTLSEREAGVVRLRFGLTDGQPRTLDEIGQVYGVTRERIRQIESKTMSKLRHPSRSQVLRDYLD
# Sequence (P9WGY5 whole entry, further chain): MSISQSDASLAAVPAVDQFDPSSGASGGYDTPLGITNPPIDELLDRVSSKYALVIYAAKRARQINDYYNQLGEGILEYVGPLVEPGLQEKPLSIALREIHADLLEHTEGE
# Sequence (P9WGY7 whole entry): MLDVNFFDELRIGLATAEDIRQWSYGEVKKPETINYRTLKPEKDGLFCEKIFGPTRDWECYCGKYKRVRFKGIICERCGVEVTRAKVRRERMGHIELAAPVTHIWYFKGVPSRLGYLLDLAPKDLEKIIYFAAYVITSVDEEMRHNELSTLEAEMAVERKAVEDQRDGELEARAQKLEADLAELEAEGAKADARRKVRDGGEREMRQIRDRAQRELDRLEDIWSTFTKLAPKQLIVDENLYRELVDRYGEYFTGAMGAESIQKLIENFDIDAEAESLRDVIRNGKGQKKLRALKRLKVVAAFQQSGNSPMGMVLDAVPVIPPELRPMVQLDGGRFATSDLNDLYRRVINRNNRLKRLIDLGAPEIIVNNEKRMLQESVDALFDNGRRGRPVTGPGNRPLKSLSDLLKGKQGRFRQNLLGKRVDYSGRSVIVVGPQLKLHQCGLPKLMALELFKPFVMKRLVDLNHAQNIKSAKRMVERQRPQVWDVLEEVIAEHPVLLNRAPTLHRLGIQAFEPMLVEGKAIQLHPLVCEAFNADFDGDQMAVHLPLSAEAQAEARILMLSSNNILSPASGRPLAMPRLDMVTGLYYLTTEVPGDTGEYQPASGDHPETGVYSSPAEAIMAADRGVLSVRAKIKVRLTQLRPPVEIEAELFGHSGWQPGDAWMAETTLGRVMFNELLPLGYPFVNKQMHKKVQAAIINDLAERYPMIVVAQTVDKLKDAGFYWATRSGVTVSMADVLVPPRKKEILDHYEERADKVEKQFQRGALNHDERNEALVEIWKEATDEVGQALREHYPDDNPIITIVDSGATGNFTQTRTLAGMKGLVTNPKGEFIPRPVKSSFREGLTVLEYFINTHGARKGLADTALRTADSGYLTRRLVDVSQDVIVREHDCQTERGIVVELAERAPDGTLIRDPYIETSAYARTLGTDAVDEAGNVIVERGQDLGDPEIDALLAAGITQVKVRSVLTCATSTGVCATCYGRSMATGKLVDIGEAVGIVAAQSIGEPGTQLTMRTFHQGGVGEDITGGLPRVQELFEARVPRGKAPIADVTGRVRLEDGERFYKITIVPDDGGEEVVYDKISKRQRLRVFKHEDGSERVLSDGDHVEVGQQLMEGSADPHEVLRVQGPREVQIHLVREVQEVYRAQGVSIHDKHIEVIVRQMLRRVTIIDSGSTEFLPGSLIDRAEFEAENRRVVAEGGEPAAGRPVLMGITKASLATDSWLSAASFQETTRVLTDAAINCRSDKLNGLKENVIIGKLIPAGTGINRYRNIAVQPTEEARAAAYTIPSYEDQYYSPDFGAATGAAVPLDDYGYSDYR
# Sequence (P9WGY9 whole entry): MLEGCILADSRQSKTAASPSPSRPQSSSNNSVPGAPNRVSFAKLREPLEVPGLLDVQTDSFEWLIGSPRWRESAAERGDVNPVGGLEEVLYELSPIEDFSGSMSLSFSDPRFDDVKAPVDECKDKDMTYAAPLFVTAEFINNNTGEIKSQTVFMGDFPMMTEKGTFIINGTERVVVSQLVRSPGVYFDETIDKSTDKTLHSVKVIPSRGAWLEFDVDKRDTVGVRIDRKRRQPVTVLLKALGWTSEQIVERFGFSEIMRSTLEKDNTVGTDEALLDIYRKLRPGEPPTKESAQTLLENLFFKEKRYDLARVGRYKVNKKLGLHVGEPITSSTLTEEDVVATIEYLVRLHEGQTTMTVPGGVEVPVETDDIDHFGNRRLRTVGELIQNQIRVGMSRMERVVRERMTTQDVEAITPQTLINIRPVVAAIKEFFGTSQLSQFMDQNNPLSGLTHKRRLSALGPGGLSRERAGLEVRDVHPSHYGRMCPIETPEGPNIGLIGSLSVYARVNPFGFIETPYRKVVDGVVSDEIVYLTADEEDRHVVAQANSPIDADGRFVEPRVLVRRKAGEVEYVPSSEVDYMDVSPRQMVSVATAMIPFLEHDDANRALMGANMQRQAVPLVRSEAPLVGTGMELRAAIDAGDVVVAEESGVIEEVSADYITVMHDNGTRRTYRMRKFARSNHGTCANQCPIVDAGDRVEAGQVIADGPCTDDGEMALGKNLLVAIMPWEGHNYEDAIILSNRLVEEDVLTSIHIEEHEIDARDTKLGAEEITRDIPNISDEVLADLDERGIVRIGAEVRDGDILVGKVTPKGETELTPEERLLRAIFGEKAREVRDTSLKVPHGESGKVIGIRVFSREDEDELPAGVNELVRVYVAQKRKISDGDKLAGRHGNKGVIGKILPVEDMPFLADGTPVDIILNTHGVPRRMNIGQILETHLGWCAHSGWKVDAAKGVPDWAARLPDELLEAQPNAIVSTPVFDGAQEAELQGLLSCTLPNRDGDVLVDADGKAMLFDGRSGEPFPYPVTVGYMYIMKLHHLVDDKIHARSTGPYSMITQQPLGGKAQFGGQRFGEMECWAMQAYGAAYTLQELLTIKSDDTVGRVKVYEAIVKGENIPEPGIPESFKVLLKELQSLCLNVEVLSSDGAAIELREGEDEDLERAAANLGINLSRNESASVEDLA
# Sequence (P9WGZ1 whole entry, further chain): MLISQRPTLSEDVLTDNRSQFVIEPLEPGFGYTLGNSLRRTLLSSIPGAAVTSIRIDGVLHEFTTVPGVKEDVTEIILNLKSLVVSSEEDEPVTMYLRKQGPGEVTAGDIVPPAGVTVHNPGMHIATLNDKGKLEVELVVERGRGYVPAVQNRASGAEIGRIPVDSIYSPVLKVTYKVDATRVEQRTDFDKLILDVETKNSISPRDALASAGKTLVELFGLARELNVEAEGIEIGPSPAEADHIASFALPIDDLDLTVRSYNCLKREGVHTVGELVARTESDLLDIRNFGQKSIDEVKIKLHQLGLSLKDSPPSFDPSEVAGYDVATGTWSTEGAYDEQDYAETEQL
# protocol-text: Fluorescence-detected RNA polymerase assay, M. tuberculosis RNA polymerase
# experimental-conditions: read-out: IC50 M. tuberculosis RNAP
pIC50: −log10 of the molar value.
quantity-kind: pIC50

>>> df
                                   compound  quantitative_readout
0  COC(=O)N/C=C/CCC(C)c1cc(O)c(C(=O)C(C)=Cc2ccc(CCCCC(F)(F)F)s2)c(=O)o1 (mixture of isomers) [APY98]                  7.40
1  CCCCCCc1ccc(C=C(C)C(=O)c2c(O)cc(C(C)CC/C=C/NC(=O)OC)oc2=O)cc1 (mixture of isomers) [APY33]                  6.40
2  COC(=O)N/C=C/CCC(C)c1cc(O)c(C(=O)C(C)=Cc2cc3cc(CCC(C)C)ccc3n2C)c(=O)o1 (mixture of isomers) [APY105]                  5.30
3  COCc1ccc(C=C(C)C(=O)c2c(O)cc(C(C)CC/C=C/NC(=O)OC)oc2=O)s1 (mixture of isomers) [APY106]                  5.40
4  CCCCc1ccc2oc(C=C(C)C(=O)c3c(O)cc(C(C)CC/C=C/NC(=O)OC)oc3=O)cc2c1 (mixture of isomers) [APY25]                  6.22
